- assayTarget: T1, human GPC3 (human, UniProt P51654 25-563)
- T1 construct: range 25-563; soluble analyte; also called soluble human GPC3; glypican 3
- T1 sequence (P51654 25-563 limits assumed): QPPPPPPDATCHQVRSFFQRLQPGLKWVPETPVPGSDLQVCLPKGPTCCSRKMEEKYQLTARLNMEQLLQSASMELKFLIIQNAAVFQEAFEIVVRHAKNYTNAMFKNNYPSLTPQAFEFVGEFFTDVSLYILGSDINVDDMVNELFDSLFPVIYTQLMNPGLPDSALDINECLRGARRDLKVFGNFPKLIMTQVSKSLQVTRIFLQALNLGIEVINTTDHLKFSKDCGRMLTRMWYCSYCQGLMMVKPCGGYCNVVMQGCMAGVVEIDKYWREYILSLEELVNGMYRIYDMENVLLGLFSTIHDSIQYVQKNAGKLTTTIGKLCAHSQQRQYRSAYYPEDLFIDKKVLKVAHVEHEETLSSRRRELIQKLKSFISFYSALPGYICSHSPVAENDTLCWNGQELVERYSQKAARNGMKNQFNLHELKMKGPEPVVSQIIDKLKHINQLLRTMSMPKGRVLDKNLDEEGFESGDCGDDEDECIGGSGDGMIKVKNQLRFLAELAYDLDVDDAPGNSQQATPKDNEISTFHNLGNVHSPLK
- assayMethodText: SPR
Could you please report measured log10 Kd for the items listed next?
Answers are given as log10 of Kd in nM.

• H0610-G1dh/none-Hi-Kn010G3/L0113-k0 (antibody, V domains shown, one-arm) VH: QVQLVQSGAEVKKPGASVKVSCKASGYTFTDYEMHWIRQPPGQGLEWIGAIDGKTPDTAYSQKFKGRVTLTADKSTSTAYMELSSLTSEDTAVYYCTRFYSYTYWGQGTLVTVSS VL: DIVMTQSPLSLPVTPGEPASISCRSSQSLVHSNRNTYLHWYQQKPGQAPRLLIYKVSTRFSGVPDRFSGSGSGTDFTLKISRVEAEDVGVYYCGQGTQVPYTFGQGTKLEIK = 0.68
• H0610-G1dh/none-Hi-Kn010G3/L0233-k0 (antibody, V domains shown, one-arm) VH: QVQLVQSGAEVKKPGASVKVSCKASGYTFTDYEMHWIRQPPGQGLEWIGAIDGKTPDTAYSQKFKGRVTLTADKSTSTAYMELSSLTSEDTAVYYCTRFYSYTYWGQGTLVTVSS VL: DIVMTQSPLSLPVTPGEPASISCRSSQELVHSNRNTYLHWYQQKPGQAPRLLIYKVSNRFSGVPDRFSGSGSGTDFTLKISRVEAEDVGVYYCGQGTQVPYTFGQGTKLEIK = 0.55
• GCH034-G1dh/none-Hi-Kn010G3/L0000-k0 (antibody, V domains shown, one-arm) VH: QVQLVQSGAEVKKPGASVKVSCKASGYTFTDYEMHWIRQPPGQGLEWIGAIDGKTPDTAYSQKFEGRVTLTADKSTSTAYMELSSLTSEDTAVYYCTRFYSYTYWGQGTLVTVSS VL: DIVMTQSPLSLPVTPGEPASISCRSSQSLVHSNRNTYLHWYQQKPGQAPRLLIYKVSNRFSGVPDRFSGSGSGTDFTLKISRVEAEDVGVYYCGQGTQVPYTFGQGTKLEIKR = 0.71

Can you give me log10 Kd for all of these, one by one?
1. GCH016-G1dh/none-Hi-Kn010G3/L0000-k0 (antibody, V domains shown, one-arm) VH: QVQLVQSGAEVKKPGASVKVSCKASGYTFTDYEMHWIRQPPGQGLEWIGAIDGKTPDTAYEQKFQDRVTLTADKSTSTAYMELSSLTSEDTAVYYCTRFYSYTYWGQGTLVTVSS VL: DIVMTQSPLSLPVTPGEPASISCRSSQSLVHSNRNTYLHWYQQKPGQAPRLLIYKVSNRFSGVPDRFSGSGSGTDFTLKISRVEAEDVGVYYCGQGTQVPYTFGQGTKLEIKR
2. H0610-G1dh/none-Hi-Kn010G3/L0231-k0 (antibody, V domains shown, one-arm) VH: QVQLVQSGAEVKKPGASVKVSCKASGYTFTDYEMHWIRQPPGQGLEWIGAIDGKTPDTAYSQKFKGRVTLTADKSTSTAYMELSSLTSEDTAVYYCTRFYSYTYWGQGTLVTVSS VL: DIVMTQSPLSLPVTPGEPASISCRSSQSPVHSNRNTYIHWYQQKPGQAPRLLIYKVSNRFSGVPDRFSGSGSGTDFTLKISRVEAEDVGVYYCYQGTQWPYTFGQGTKLEIK
3. GCH029-G1dh/none-Hi-Kn010G3/L0000-k0 (antibody, V domains shown, one-arm) VH: QVQLVQSGAEVKKPGASVKVSCKASGYTFEDYEMHWIRQPPGQGLEWIGAIDGKTPDTAYSQKFKGRVTLTADKSTSTAYMELSSLTSEDTAVYYCTRFYSYTYWGQGTLVTVSS VL: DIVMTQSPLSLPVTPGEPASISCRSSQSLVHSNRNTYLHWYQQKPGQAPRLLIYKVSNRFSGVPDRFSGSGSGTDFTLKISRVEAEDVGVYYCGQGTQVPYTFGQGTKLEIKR
4. H0610-G1dh/none-Hi-Kn010G3/L0132-k0 (antibody, V domains shown, one-arm) VH: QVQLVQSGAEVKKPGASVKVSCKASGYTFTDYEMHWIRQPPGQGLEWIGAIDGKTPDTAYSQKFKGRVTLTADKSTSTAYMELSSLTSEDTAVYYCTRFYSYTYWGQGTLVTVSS VL: DIVMTQSPLSLPVTPGEPASISCRSSQSLVHSNRNTYLHWYQQKPGQAPRLLIYKVSNRVSGVPDRFSGSGSGTDFTLKISRVEAEDVGVYYCGQGTQVPYTFGQGTKLEIK
5. H0610-G1dh/none-Hi-Kn010G3/TR01L017-k0 (antibody, V domains shown, one-arm) VH: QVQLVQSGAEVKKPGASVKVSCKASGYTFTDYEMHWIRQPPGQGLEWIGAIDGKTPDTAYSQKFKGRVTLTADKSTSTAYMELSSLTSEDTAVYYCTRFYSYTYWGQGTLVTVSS VL: DIVMTQSPLSLPVTPGEPASISCRSSQSPVHSNRNTYIQWYLQKPGQSPQLLIYKVSNRFSGVPDRFSGSGSGTDFTLKISRVEAEDVGVYYCYQGTQVPYTFGQGTKLEIK
6. GCH098-G1dh/none-Hi-Kn010G3/L0000-k0 (antibody, V domains shown, one-arm) VH: QVQLVQSGAEVKKPGASVTVSCKASGYTFTDYEMHWVRQAPGEGLEWMGAIDGPTPDTAYSEKFKGRVTLTADKSTSTAYMELSSLTSEDTAVYYCTRFYSYTYWGQGTLVTVSS VL: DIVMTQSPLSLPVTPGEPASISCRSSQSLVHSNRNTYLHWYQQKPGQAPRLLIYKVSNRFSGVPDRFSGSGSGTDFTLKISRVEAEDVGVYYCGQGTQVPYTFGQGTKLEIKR
7. H0610-G1dh/none-Hi-Kn010G3/L0125-k0 (antibody, V domains shown, one-arm) VH: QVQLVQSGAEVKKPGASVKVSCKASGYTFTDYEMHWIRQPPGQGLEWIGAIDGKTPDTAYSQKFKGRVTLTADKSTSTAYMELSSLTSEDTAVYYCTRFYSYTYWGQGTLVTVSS VL: DIVMTQSPLSLPVTPGEPASISCRSSQSLVHSNRNTYLHWYQQKPGQAPRLLIYKVSNRMSGVPDRFSGSGSGTDFTLKISRVEAEDVGVYYCGQGTQVPYTFGQGTKLEIK

A)
1: 0.66; 2: -0.23; 3: 0.70; 4: 0.75; 5: -2.08; 6: 0.25; 7: 0.23
